Test system: HCT-116 colon
Assay: NCI-60 one-dose screen, 48 h
Conditions: 10 µM unless noted
Compounds without any hit were thinned out: in the full panel of roughly 83,000, 20% have a hit. The source made the active and inactive calls. Rule for the calls: active = growth percent below 10; inactive = the rest.
Labels: 1 for active, -1 for inactive

{"columns": ["molecule", "answer label"],
 "data": [
  ["COc1ccc2c(c1)c(-c1nc(-c3cn(C)c4ncccc34)cs1)cn2CCN", -1],
  ["COC(=O)[C@@H]1[C@H]2C[C@H]3c4[nH]c5cc(OC)ccc5c4CCN3C[C@@H]2C[C@H](OC(=O)/C=C/c2ccnc(OC)c2)[C@H]1OC", -1],
  ["CCN1CCN(C(=O)[C@]23CC[C@@H](C)[C@H](C)[C@H]2C2=CC[C@@H]4[C@@]5(C)C/C(=C/c6cccc(OC)c6OC)C(=O)C(C)(C)[C@@H]5CC[C@@]4(C)[C@]2(C)CC3)CC1", -1],
  ["Cn1c(=O)c2c(nc(Br)n2CC(=O)Nc2ccc(F)cc2)n(C)c1=O", -1],
  ["Cn1cc(-c2csc(-c3cn(C(=O)OC(C)(C)C)c4ccccc34)n2)c2cccnc21", -1],
  ["COc1cc2c3c(c4c5ccccc5[nH]c4c2c(OC)c1OC)C(=O)N(O)C3=O", -1],
  ["Cc1cc2nc3c4cc(Cl)ccc4n(CCN(C)C)c3nc2cc1C", 1],
  ["CC(=O)NC1=C(C#N)C(c2ccccc2Cl)c2c(ccc3ccccc23)O1 (configuration not stated)", -1],
  ["CN(C)CCCCC(C(=O)CBr)(c1ccccc1)c1ccccc1", 1],
  ["C=C(C)[C@@H]1CC[C@]2(C)CC[C@]3(C)[C@H](CC[C@@H]4[C@@]5(C)CCCNC(C)(C)[C@@H]5CC[C@]43C)[C@@H]12", 1],
  ["CC(Cc1ccco1)C(=O)NC(N)=O (configuration not stated)", -1],
  ["O=c1c(CNc2ccc(S(=O)(=O)Nc3ncccn3)cc2)coc2ccccc12", -1],
  ["Cc1cc(C)n(Cc2cc(C(C)(C)C)cc(C(C)(C)C)c2)c(=O)c1C#N", -1],
  ["COc1cc2[nH]c(C(=O)c3cc(OC)c(OC)c(OC)c3)c(N)c2cc1C#CC1CC1", -1],
  ["Cn1c2c(Cl)c(Cl)ccc2c2c(C#N)c[nH]c(=O)c21", -1],
  ["CC(=O)n1c(/C(C#N)=C/c2ccc(N(C)C)cc2)cc2ccccc21", -1],
  ["C=C(C)[C@@H]1CC[C@]2(C(=O)O)CC[C@]3(C)[C@H](CC[C@@H]4[C@@]5(C)C/C(=C/c6ccc(OC)cc6)C(=O)C(C)(C)[C@@H]5CC[C@]43C)[C@@H]12", 1],
  ["COc1cccc(-c2nn(-c3ccccc3)cc2-c2ccnc(NCCCO)c2)c1", -1],
  ["N#CC1c2ccccc2-c2ccccc2N1C(=O)c1ccccc1 (configuration not stated)", 1],
  ["CCC(=O)c1c(C)[nH]c(C)c1C", -1],
  ["N=C(N)c1ccc(S(N)(=O)=O)cc1", -1],
  ["COc1cc(-c2cc3ncccc3c3[nH]c(=O)c4cccnc4c23)cc(OC)c1OC", -1],
  ["COc1cccc(NC(=O)c2sc3nc4c(cc3c2N)C(=O)CCC4)c1", -1],
  ["COc1ccc(NC(=O)c2ccoc2COc2ccccc2)cc1", -1],
  ["C=C(C)[C@@H]1CC[C@]2(C(=O)O)CC[C@]3(C)[C@H](CC[C@@H]4[C@@]5(C)C/C(=C/c6cccc(I)c6)C(=O)C(C)(C)[C@@H]5CC[C@]43C)[C@@H]12", 1],
  ["Cc1nn(-c2ccc(Cl)cc2)c(=O)n1CCn1cnc2ccccc21", -1],
  ["Cc1cc(N(CCNc2ccnc3cc(Cl)ccc23)Cc2ccco2)nc(Cl)n1", 1],
  ["CN1CCN(CC#CCn2c3c(c4ccccc42)C[C@]2(C)[C@H]4CC[C@@H]5[C@H]6[C@H]7OC(=O)[C@@]6(CCC7(C)C)CC[C@@]5(C)[C@]4(C)CC[C@H]2C3(C)C)CC1", -1],
  ["Cc1cc2nc3c4cc(N)ccc4n(CCN(C)C)c3nc2cc1C", 1],
  ["Cc1nnc2nc(N)[nH]n2c1=O", -1],
  ["COc1ccc(-c2c(-c3nc4ccc(N5CCOCC5)cc4[nH]3)[nH]c(C)c2C(C)=O)cc1", -1],
  ["O=S(=O)(NCCNc1cc(-c2cn(-c3ccccc3)nc2-c2cccc(O)c2)ccn1)c1ccc(C(F)(F)F)cc1", -1],
  ["CC(=O)O[C@H]1CC[C@@]2(C)C(=CC[C@@H]3[C@@H]2CC[C@]2(C)C(=O)N(O)C(=O)C[C@@H]32)C1", -1],
  ["Cc1ccc(N(CC(=O)Nc2ccc(S(=O)(=O)NC3CCN(C)CC3)cc2)S(=O)(=O)c2ccc(Cl)cc2)cc1", -1],
  ["Nc1ncnc2nc(Br)[nH]c12", -1],
  ["C[C@]12CC[C@@H]3c4ccc(O)cc4CC[C@H]3[C@@H]1C[C@H](O)[C@@H]2O", -1],
  ["NC1=NN=C2N(N)C(=O)c3cnn(-c4ccccc4)c3N2c2nc(-c3ccccc3)cc(-c3ccccc3)c21", -1]
]}
